All values here come from a melting point compilation (Tetko et al.; mined from patent text by program, amines drawn as free bases though some values may be those of a salt).

melting point values by entry

Measured melting point, CC(C)(C)c1ccc(O)c(CO)c1 : 65 to 85 °C

Measured melting point, NNC(=O)C(Cc1cccs1)NC(=O)[C@H](Cc1cccc2ccccc12)NC(=O)OCc1ccccc1 (mixture of isomers) : 163 to 164 °C

Measured melting point, COc1ccc(Oc2ccccc2)c(NS(C)(=O)=O)c1 : 110 to 111 °C

Measured melting point, COC(=O)C(CC(C)C)NCC(=O)Nc1cccc2c1C(=O)c1c(NC(=O)CNC(CC(C)C)C(=O)OC)cccc1C2=O (configuration not stated) : 238 to 239 °C

Measured melting point, CN(C)CCc1c(CSc2ccccc2)c2ccccc2n1C : 58 to 60 °C

Measured melting point, COc1cc(Nc2nccc(-c3cccc(N)c3)n2)cc(OC)c1OC : 166 to 167 °C

Further cases:
Measured melting point, Cn1c(C(F)(F)F)cc(=O)n(-c2cc(OCc3ccccc3F)c(Cl)cc2F)c1=O : 126 to 128 °C
